- run.description: Cytotoxicity against human HCT116 cells after 72 hrs by SRB assay
- Type: functional, cell-based
- study.conditions: HCT-116, 72 h

>  <compound>
Nc1nc(Cl)nc2c1ncn2[C@H]1C[C@H](O)[C@@H](CO)O1

>  <IC50>
0.3 µM

$$$$
>  <compound>
Cc1ccc(S(=O)(=O)n2cnc3c(NCCC4C=CCCC4)ncnc32)cc1 (stereo not given)

>  <IC50>
8.7 µM

$$$$
>  <compound>
FC(F)(F)c1ccc(N2CCN(c3ncnc4c3ncn4C3CCCC3)CC2)cc1

>  <IC50>
< 0.1 µM

$$$$
>  <compound>
CCOC(=O)Cn1cnc2c(N3CCN(c4ccc(C(F)(F)F)cc4)CC3)ncnc21

>  <IC50>
72.4 µM

$$$$
>  <compound>
CCOC(=O)Cn1cnc2c(NCc3cccc(C(F)(F)F)c3)ncnc21

>  <IC50>
> 200 µM

$$$$

---

- run.description: Cytotoxicity against human Hep3B cells after 72 hrs by SRB assay
- Assay type: functional, cell-based, Hep 3B2
pIC50: −log10 of the molar value.

>  <smiles.entry>
FC(F)(F)c1ccc(N2CCN(c3ncnc4[nH]cnc34)CC2)cc1

>  <pIC50>
5.17

$$$$
>  <smiles.entry>
FC(F)(F)c1ccc(N2CCN(c3ncnc4c3ncn4C3CCCC3)CC2)cc1

>  <pIC50>
6.10

$$$$
>  <smiles.entry>
Cc1ccc(S(=O)(=O)n2cnc3c(N4CCN(c5ccc(C(F)(F)F)cc5)CC4)ncnc32)cc1

>  <pIC50>
5.54

$$$$

---

- Test system: T47D
- run.description: Cytotoxicity against human T47D cells after 72 hrs by SRB assay
- Format: functional, cell-based
pIC50: −log10 of the molar value.
measurement.label: pIC50

>  <molecule>
Nc1nc(Cl)nc2c1ncn2[C@H]1C[C@H](O)[C@@H](CO)O1 [CLADRIBINE]

>  <censor.symbol>
=

>  <observed.measurement>
6.15

$$$$
>  <molecule>
O=c1[nH]cc(F)c(=O)[nH]1 [FLUOROURACIL]

>  <censor.symbol>
=

>  <observed.measurement>
5.10

$$$$
>  <molecule>
Cc1ccc(S(=O)(=O)n2cnc3c(NCc4ccc(F)cc4F)ncnc32)cc1

>  <censor.symbol>
=

>  <observed.measurement>
3.93

$$$$
>  <molecule>
Cc1ccc(S(=O)(=O)n2cnc3c(NCCC4C=CCCC4)ncnc32)cc1 (stereo not given)

>  <censor.symbol>
=

>  <observed.measurement>
4.46

$$$$
>  <molecule>
Nc1nc(F)nc2c1ncn2[C@@H]1O[C@H](CO)[C@@H](O)[C@@H]1O [FLUDARABINE]

>  <censor.symbol>
=

>  <observed.measurement>
4.34

$$$$
>  <molecule>
Cc1ccc(S(=O)(=O)n2cnc3c(N4CCN(c5ccc(C(F)(F)F)cc5)CC4)ncnc32)cc1

>  <censor.symbol>
=

>  <observed.measurement>
4.37

$$$$
>  <molecule>
CCOC(=O)Cn1cnc2c(NCc3ccc(Cl)cc3Cl)ncnc21

>  <censor.symbol>
=

>  <observed.measurement>
4.00

$$$$
>  <molecule>
FC(F)(F)c1ccc(N2CCN(c3ncnc4c3ncn4C3CCCC3)CC2)cc1

>  <censor.symbol>
>

>  <observed.measurement>
7.00

$$$$
>  <molecule>
Cc1ccc(S(=O)(=O)n2cnc3c(N4CCC(C)CC4)ncnc32)cc1

>  <censor.symbol>
=

>  <observed.measurement>
4.65

$$$$
>  <molecule>
Cc1ccc(S(=O)(=O)n2cnc3c(Cl)ncnc32)cc1

>  <censor.symbol>
=

>  <observed.measurement>
4.86

$$$$
